Values were extracted from ChEMBL document CHEMBL4808168.

pEC50 reference
test system: Z-138; experiment: Antiproliferative activity against human Z138 cells incubated for 10 days by cell titer-glo assay; type: functional, cell-based; settings: Z-138, 240 h
// field semantics: pEC50 = negative decimal log of concentration (mol/L)

For CNc1ncnc2c1ccn2[C@@H]1O[C@@H]2[C@H](Cc3ccc4cc(Br)c(N)nc4c3)CC[C@]2(O)[C@H]1O the molecule record lists pEC50 as 7.80

For Cc1ncnc2c1ccn2[C@@H]1C[C@@H]2[C@H](Cc3ccc4cc(Br)c(N)nc4c3)CC[C@]2(O)[C@H]1O the molecule record lists pEC50 as 8.80

For Nc1nc2cc(C[C@@H]3CC[C@@]4(O)[C@@H]3O[C@@H](n3cc(F)c5c(N)ncnc53)[C@@H]4O)ccc2cc1F the molecule record lists pEC50 as 8.25
